Data origin, for the record: ChEMBL document CHEMBL1141388

# Assayed System: Cathepsin K (Homo sapiens, UniProt P43235)
# Sequence (P43235 whole entry): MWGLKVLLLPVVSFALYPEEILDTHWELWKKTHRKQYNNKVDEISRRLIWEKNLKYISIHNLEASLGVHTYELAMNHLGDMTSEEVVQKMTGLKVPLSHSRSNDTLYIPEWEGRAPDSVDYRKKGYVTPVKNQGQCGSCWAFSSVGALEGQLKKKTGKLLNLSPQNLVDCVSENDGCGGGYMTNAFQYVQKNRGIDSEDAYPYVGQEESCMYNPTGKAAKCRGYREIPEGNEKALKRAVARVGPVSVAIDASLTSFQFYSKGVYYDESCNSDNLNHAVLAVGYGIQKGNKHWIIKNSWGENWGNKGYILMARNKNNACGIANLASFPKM
# Experiment Description: Inhibition of human recombinant cathepsin K
Each record here notes measured IC50.

Some solved cases for reference:
| Smiles String | Assayed System | IC50 |
| --- | --- | --- |
| COc1cccc(CCNC(=O)c2cnc(C#N)nc2NCC(C)(C)C)c1 | Cathepsin K (Homo sapiens, UniProt P43235) | < 0.003 µM |
| N#Cc1cccc(NC2CCCCC2)c1 | Cathepsin K (Homo sapiens, UniProt P43235) | > 1 µM |
| COc1ccc(CCNC(=O)c2cnc(C#N)nc2NCC(C)(C)C)cc1 | Cathepsin K (Homo sapiens, UniProt P43235) | < 0.003 µM |

Cathepsin K (Homo sapiens, UniProt P43235) data for `N#Cc1cncc(NC2CCCCC2)n1` ; its IC50: > 1 µM
